Attribution: paper PMC9295122

# EXPERIMENTAL_TARGET: SaSiaT (Staphylococcus aureus, UniProt A0A0H2XJ46)
# Sequence (A0A0H2XJ46 entry or part of it): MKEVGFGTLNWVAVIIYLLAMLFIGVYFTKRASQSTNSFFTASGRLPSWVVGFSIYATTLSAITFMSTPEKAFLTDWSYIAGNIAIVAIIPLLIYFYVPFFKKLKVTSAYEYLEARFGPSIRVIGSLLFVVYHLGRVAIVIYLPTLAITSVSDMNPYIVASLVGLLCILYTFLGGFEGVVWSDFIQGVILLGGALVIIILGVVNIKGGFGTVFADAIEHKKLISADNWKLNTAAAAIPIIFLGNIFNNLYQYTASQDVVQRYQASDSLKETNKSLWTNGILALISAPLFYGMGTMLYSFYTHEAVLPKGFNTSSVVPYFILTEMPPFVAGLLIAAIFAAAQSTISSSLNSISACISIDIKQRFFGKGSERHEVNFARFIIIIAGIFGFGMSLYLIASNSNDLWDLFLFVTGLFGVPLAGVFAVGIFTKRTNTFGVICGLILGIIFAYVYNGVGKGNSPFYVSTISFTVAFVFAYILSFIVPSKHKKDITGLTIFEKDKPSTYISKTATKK
# PROTOCOL_SUMMARY: nanoDSF thermal shift assay, SaSiaT
# Assay type: binding
# CONDITION_SUMMARY: SaSiaT Tm, average of experiment 3
Can you tell me Average 3 for the items I'm about to list?
Record the value in °C, omitting the unit from your answer.

Q: Report Average 3 for CCSCC(O)C(O)C1OC(O)(C(=O)O)CC(O)C1NC(C)=O (centres unmarked) [Compound 8b] please.
A: 49.8

Q: Report Average 3 for CC(=O)NC1C(OCc2cc(F)cc(F)c2)CC(O)(C(=O)O)OC1C(O)C(O)CO (centres unmarked) [Compound 3e] please.
A: 57.1

Q: Report Average 3 for CSCC(O)C(O)C1OC(O)(C(=O)O)CC(O)C1NC(C)=O (centres unmarked) [Compound 8a] please.
A: 50.8

Q: Report Average 3 for O=C(CF)NC1C(O)CC(O)(C(=O)O)OC1C(O)C(O)CO (centres unmarked) [Compound 6f] please.
A: 51.9

Q: Report Average 3 for CC(=O)NC1C(O)CC(O)(C(=O)O)OC1C(O)C(C)O (centres unmarked) [Compound 8f] please.
A: 42.9

Q: Report Average 3 for [N-]=[N+]=NCC(=O)N[C@H]1[C@H]([C@H](O)[C@H](O)CO)O[C@@](O)(C(=O)O)C[C@@H]1O [Compound 6h, reference compound] please.
A: 52.8

Q: Report Average 3 for O=C(NC1C(O)CC(O)(C(=O)O)OC1C(O)C(O)CO)c1ccccc1 (centres unmarked) [Compound 6d] please.
A: 46.0

Q: Report Average 3 for CC(=O)NC1C(OCc2ccccc2)CC(O)(C(=O)O)OC1C(O)C(O)CO (centres unmarked) [Compound 3a] please.
A: 56.3
